Data origin, for the record: ChEMBL document CHEMBL6121038

system: RAW264.7; assay: Cytotoxicity against mouse RAW264.7 cells assessed as cell viability at 40 uM measured after 24 hrs by MTT assay; type: toxicity, cell-based; conditions: raw264.7, 24 h
property label: Activity

* CCOC(=O)c1noc2c1C[C@@]1(C)[C@@H](CC[C@]3(C)[C@@H]1CC=C1[C@@H]4CC(C)(C)CC[C@]4(C(=O)OCc4ccccc4)CC[C@]13C)[C@]2(C)COC(=O)c1ccccc1C(=O)N[C@@H](CCC(=O)OC)C(=O)OC | Non-toxic
* CCOC(=O)c1noc2c1C[C@@]1(C)[C@@H](CC[C@]3(C)[C@@H]1CC=C1[C@@H]4CC(C)(C)CC[C@]4(C(=O)OCc4ccccc4)CC[C@]13C)[C@]2(C)COC(=O)[C@H](CCC(=O)OC)NC(=O)OC(C)(C)C | Non-toxic
